The measured values listed here are drawn from the supplement of paper PMC7877785.

test_description: self-splicing fitness, log relative to wild type (ln ratio); higher = more splicing; Tetrahymena group I intron in knt gene, E. coli kanamycin selection, DiMSum; sequences stand for … in CUCUCU…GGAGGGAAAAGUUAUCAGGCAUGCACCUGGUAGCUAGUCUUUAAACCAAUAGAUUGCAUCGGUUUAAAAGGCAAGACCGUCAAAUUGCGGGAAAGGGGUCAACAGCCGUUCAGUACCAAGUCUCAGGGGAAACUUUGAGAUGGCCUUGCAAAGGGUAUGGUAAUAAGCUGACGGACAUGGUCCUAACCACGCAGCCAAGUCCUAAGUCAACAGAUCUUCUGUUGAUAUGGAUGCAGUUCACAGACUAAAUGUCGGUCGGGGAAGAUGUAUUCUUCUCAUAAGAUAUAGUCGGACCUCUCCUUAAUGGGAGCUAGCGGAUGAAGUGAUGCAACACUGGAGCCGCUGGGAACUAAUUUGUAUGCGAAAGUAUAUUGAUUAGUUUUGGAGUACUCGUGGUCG;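 note: selection with 25 µg/mL kanamycin versus none on LB agar overnight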
details: 37 °C
Attribute: self-splicing fitness (ln)

# query_sequence, self-splicing fitness (ln)
records = [
    ("UACAAGCAAUAUUACGGGGG", -2.02),
    ("AGCAAGCAAUAUUACGUGCU", -2.07),
    ("GCAAAGCAAUAUUACGACGU", 0.116),
    ("GCAGAGCAAUAUUACGAUUU", -2.16),
    ("AGUGAGCAAUAUUACGCAAU", -0.698),
    ("CCAGAGCAAUAUUACGAUGC", -2.78),
    ("GCAAAGCAAUAUUACGUUUA", -1.75),
    ("UAUCAGCAAUAUUACGAUUU", 0.207),
    ("CAAUAGCAAUAUUACGAUCA", -2.17),
    ("AUAGAGCAAUAUUACGUGUU", -2.38),
    ("UCUAAGCAAUAUUACGCGAU", -3.83),
    ("CAGAAGCAAUAUUACGAUAA", -2.02),
    ("UAUAAGCAAUAUUACGACGG", 0.474),
    ("GCCGAGCAAUAUUACGUUAU", -2.43),
    ("CUUCAGCAAUAUUACGAGGC", -1.59),
    ("ACAGAGCAAUAUUACGCUUA", -1.25),
    ("CAUAAGCAAUAUUACGGGCU", -2.73),
    ("ACUAAGCAAUAUUACGUCUA", -0.981),
    ("AUUCAGCAAUAUUACGUUCC", -1.5),
    ("CAGAAGCAAUAUUACGGCGU", -1.18),
    ("UACGAGCAAUAUUACGCCUA", -0.823),
    ("ACAGAGCAAUAUUACGUGGA", -2.88),
    ("UCGAAGCAAUAUUACGCUGU", -2.06),
    ("AUUCAGCAAUAUUACGGGAG", -0.443),
    ("GGAUAGCAAUAUUACGUACA", -0.395),
    ("AAAAAGCAAUAUUACGCUAU", -1.31),
    ("ACUGAGCAAUAUUACGCCCG", -0.509),
    ("GCACAGCAAUAUUACGACGC", -0.196),
    ("GGUAAGCAAUAUUACGAUAC", -0.608),
    ("AGCCAGCAAUAUUACGGGUG", -0.713),
    ("CUUUAGCAAUAUUACGCGUA", -3.28),
    ("UAGCAGCAAUAUUACGUCGA", -0.528),
    ("AACCAGCAAUAUUACGAUGC", -0.673),
    ("UGUGAGCAAUAUUACGCGUG", -1.75),
]

###

test_description: self-splicing fitness, log relative to wild type (ln ratio); higher = more splicing; Tetrahymena group I intron in knt gene, E. coli kanamycin selection, DiMSum; sequences stand for … in CUCUCU…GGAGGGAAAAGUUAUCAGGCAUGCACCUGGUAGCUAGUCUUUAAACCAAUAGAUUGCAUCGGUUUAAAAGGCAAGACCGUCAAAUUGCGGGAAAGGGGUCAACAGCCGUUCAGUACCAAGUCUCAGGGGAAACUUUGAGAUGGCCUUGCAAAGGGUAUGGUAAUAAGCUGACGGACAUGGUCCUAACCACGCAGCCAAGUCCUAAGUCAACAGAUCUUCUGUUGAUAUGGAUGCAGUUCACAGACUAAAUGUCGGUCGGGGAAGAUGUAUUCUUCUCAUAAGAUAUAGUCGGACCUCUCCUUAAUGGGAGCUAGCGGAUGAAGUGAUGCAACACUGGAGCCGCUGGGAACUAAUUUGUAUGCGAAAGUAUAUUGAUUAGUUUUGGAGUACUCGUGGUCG
details: 37 °C

# query_sequence, self-splicing fitness (ln)
measured = [
    ("CAUAAGCAAUAUUACGCGAA", -2.59),
    ("UACGAGCAAUAUUACGAAGG", -0.765),
    ("AACUAGCAAUAUUACGGGAC", -1.08),
    ("AAUGAGCAAUAUUACGUAAA", -1.1),
    ("GGUUAGCAAUAUUACGAAUC", -1.06),
    ("CGAUAGCAAUAUUACGUAGA", -1.3),
    ("UACAAGCAAUAUUACGGAGU", -1.71),
    ("GUUCAGCAAUAUUACGGUGG", -1.96),
    ("UUGAAGCAAUAUUACGCGAC", -1.51),
    ("UGCGAGCAAUAUUACGAUUU", -0.802),
    ("GGCCAGCAAUAUUACGCAUC", 0.0683),
    ("AGAUAGCAAUAUUACGCGGC", -3.59),
    ("UUGCAGCAAUAUUACGAUCU", -1.78),
    ("CGGCAGCAAUAUUACGCCGU", -2.29),
    ("GCGUAGCAAUAUUACGGAGA", -1.87),
    ("GAGUAGCAAUAUUACGCCCA", -1.39),
]

###

test_description: self-splicing fitness, log relative to wild type (ln ratio); higher = more splicing; Tetrahymena group I intron in knt gene, E. coli kanamycin selection, DiMSum; sequences stand for … in CUCUCU…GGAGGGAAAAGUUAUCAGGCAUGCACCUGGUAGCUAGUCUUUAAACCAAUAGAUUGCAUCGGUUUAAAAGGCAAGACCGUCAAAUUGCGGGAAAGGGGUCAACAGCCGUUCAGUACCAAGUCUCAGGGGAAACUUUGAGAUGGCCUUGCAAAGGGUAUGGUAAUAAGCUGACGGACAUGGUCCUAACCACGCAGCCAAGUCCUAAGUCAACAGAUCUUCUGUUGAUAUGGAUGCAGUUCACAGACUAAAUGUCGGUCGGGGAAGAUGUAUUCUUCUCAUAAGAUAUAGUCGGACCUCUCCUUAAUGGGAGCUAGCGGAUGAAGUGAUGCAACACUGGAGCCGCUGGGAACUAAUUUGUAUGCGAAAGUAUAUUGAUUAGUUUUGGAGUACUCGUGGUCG
details: 37 °C

# query_sequence, self-splicing fitness (ln)
measured = [
    ("GAGCAGCAAUAUUACGUCGA", -0.741),
    ("UGGGAGCAAUAUUACGUCUA", -0.187),
    ("UGGAAGCAAUAUUACGACGC", -1.05),
    ("CUAGAGCAAUAUUACGGCUG", -0.255),
    ("UUCCAGCAAUAUUACGCUCG", -0.977),
    ("GCUUAGCAAUAUUACGUUUU", -0.474),
    ("GUCAAGCAAUAUUACGCAAA", -1.46),
    ("GCGAAGCAAUAUUACGGUUC", -1.24),
]

###

Attribute: self-splicing fitness (ln)
test_description: self-splicing fitness, log relative to wild type (ln ratio); higher = more splicing; Tetrahymena group I intron in knt gene, E. coli kanamycin selection, DiMSum; sequences stand for … in CUCUCU…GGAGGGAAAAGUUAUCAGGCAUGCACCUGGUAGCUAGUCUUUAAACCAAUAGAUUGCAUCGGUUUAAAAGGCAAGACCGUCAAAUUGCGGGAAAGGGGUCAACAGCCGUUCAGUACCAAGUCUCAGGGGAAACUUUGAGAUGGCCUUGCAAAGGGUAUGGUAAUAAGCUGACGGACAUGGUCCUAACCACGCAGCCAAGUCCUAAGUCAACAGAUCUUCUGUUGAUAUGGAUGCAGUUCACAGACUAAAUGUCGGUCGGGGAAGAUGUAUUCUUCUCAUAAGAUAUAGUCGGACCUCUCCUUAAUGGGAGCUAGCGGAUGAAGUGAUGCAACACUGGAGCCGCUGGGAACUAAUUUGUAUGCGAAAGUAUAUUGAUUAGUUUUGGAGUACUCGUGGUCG
details: 30 °C
measure: self-splicing fitness (ln)

# query_sequence, readout_number
data = [
    ("ACCAAGCAAUAUUACGAGUG", -2.09),
    ("CGUAAGCAAUAUUACGACGU", -2.15),
    ("AGUAAGCAAUAUUACGAGCC", -0.632),
    ("GGCUAGCAAUAUUACGGCGC", 0.164),
    ("ACACAGCAAUAUUACGCGUU", -4.3),
    ("CGCUAGCAAUAUUACGGUUU", -1.69),
    ("CGCCAGCAAUAUUACGACCU", -3.15),
    ("CGUUAGCAAUAUUACGCACU", -2.03),
    ("GAGUAGCAAUAUUACGGUAA", -2.23),
    ("GUUUAGCAAUAUUACGGUCC", -0.925),
    ("GAAUAGCAAUAUUACGUCGU", -2),
    ("UAGGAGCAAUAUUACGUGAG", -2.42),
    ("UUACAGCAAUAUUACGGCAG", -0.142),
    ("GGAUAGCAAUAUUACGAACC", -2.49),
    ("AACUAGCAAUAUUACGCAGC", -3.32),
    ("CAGCAGCAAUAUUACGUAGU", -3.03),
    ("UCGAAGCAAUAUUACGCCAG", -2.24),
    ("UCUUAGCAAUAUUACGUACU", -2.72),
    ("GAGUAGCAAUAUUACGGAAU", -2.46),
    ("GCCAAGCAAUAUUACGUCGC", -2.63),
    ("UGCGAGCAAUAUUACGAUUU", -3.11),
    ("UCUCAGCAAUAUUACGUAUU", -3.14),
    ("GCGGAGCAAUAUUACGCAGC", -1.9),
    ("AACCAGCAAUAUUACGGCUU", -0.621),
    ("UAGAAGCAAUAUUACGUCAU", -2.84),
    ("AACAAGCAAUAUUACGCUUG", -2.82),
    ("GCGGAGCAAUAUUACGUGUG", -3.19),
    ("GCCAAGCAAUAUUACGAAUG", -3.56),
    ("CUGUAGCAAUAUUACGGGAU", -3.16),
    ("AGGAAGCAAUAUUACGUCGC", -2.62),
    ("GAUCAGCAAUAUUACGGGCC", -0.0569),
    ("GGUAAGCAAUAUUACGGGCA", -0.438),
    ("GUGAAGCAAUAUUACGGGCU", -2.08),
    ("GGUAAGCAAUAUUACGGACC", -0.973),
]
